- Test system: SF-268 CNS
- ASSAY_METHOD_TEXT: NCI-60 one-dose screen, 48 h
- CONDITION_DETAILS: 10 µM unless noted
Compounds without any hit were thinned out: in the full panel of roughly 83,000, 20% have a hit. Active and inactive are the calls of the source. The calls were made as follows: active = growth percent below 10; inactive = the rest.
Use one of these outcomes when replying: true (active), false (inactive)

Answered cases to consult:
COMPOUND	CLASS_NAME
CCSc1nc(-c2ccco2)n2nc(-c3ccco3)cc2n1	false
CCOc1cc(CCNS(=O)(=O)c2ccc(C)cc2)c(C(C)=O)cc1OCC	false
O=C(Nc1nc2ccc(OC(F)(F)F)cc2s1)c1ccc(F)cc1	true
CCOC(=O)/C=C1/SC(=Nc2ccc(C#N)cc2)N(Cc2ccco2)C1=O	false

Call for entry `COC(=O)[C@H](Cc1cn(C)cn1)NC(=O)[C@H](Cc1ccccc1)NC(=O)Nc1cc(C(F)(F)F)cc(C(F)(F)F)c1` :
true

Per the records of this test, what outcome belongs to `CCOC(=O)/C(=C/CC/C(C)=C/CC/C(C)=C/CCc1ccoc1)CC(=O)N1CCCCC1` ?
false

Test call, this compound: COc1ccc(C2=NN(C=O)C(c3cccc(Nc4ccnc5cc(Cl)ccc45)c3)C2)cc1 (stereo unspecified)
false

Status in this test for CCOC(=O)C1=CCC(n2cc(C)c(=O)[nH]c2=O)O1 (stereo unspecified) ?
false

For `CCc1ccc(-c2nc(SCC(=O)NC3CCCCC3)n[nH]2)cc1` , which call appears in the assay record?
false

----------
- Tested on: LOX IMVI melanoma
- ASSAY_METHOD_TEXT: NCI-60 one-dose screen, 48 h (100 = growth as untreated, 0 = no growth, -100 = all killed)
- CONDITION_DETAILS: 10 µM unless noted
This is part of a sample that, as a whole, favours compounds with a hit. Of some 83,000 tested, about 20% had one in any assay.
RECORDED_METRIC: growth (%)
Your answer is read as %, so omit the unit and give the number.

Use the examples below as a reference point.
COMPOUND	NUMERIC_RESULT
CC1C(C)N(C(=O)CCl)c2ccccc2N1C(=O)CCl (stereo unspecified)	-81.2
O=C(Nc1ccccc1S)c1ccccc1	84.9
CCCCc1ccc(C(N)=O)nc1	89
Cc1cc(=O)oc2cc(OCCn3c(C)nn(-c4ccc(Cl)cc4)c3=O)ccc12	48
CCOC(=O)C(C(=O)OCC)C1CCCCC1	110

Reported growth, compound `Cc1nn(-c2ccccc2)cc1/C=C1\SC(N2CCCCC2)=NC1=O` : ____
68.1

Would you mind telling me what growth value was observed for `O=c1ncc(-c2ccc(C(F)(F)F)cc2)c(NC2CCCCCC2)[nH]1` ?
57.9

What does the data say about its growth? Entry: `Cc1cc(C)c(C(=O)c2cccs2)c(C)c1`
102

# query: growth of entry `CC(=O)O[C@H]1CC[C@@]2(C)C(=CC[C@@H]3[C@@H]2CC[C@]2(C)C(c4cccnc4)=CC[C@@H]32)C1`
63.4

Fill in: growth of `CC(C)Sc1nc(Cl)c(C#N)c(-c2ccc(F)cc2)n1` is ___
70.2

Form field: reported growth of CC1Cc2ccccc2N1C(=O)c1ccc(C(=O)c2ccccc2)cc1 (stereo unspecified)
83

----------
- Tested on: PC-3 prostate
- ASSAY_METHOD_TEXT: NCI-60 one-dose screen, 48 h
- CONDITION_DETAILS: 10 µM unless noted
This is part of a sample that, as a whole, favours compounds with a hit. Of some 83,000 tested, about 20% had one in any assay. Activity calls are given as the source filed them. How the source made its calls: active means growth percent below 10; inactive means the rest.
Allowed answers: active, inactive

// below: answered compounds
COMPOUND	CLASS_NAME
CC(=O)Nc1ccc(C(=O)COc2cccc(/C=C3\CCc4ccccc4C3=O)c2)cc1	inactive
Cc1ccc(-c2cc(-c3ccccc3)n(-c3ccccc3)n2)cc1	inactive
Nc1c(C(=O)Nc2cccc(Cl)c2)sc2nc3c(cc12)C(O)CCC3 (stereo not drawn)	inactive
CCCCCN(CCCCC)CCCNc1c2c(nc3ccc(Cl)cc13)CCCC2	inactive
COc1cccc(N2CCN(c3cccc(C)n3)CC2)c1	inactive

Which outcome was entered for the compound `N[C@H](CS)C(=O)O` in this test?
inactive

Check the results log: what was the call for `Cn1cc(NC(=O)Nc2cc(C(=O)O)n(C)c2)cc1C(=O)O` ?
active

Test call, this compound: `O=C(Nc1ccccc1)P(=O)(O)c1ccccc1`
inactive
